System: MS2 coat protein
protocol-details: apparent KD of MS2 coat protein; designed switch direction (-1 OFF switch, 1 ON switch): -1; higher = weaker reporter binding
condition-parameters: input ligand: FMN 200 uM

- biosequence: "GUGCAGCGAGGAUAUACAGACGGGUCCAGUACGUGUCUUGGACUUGAGGAUCACCCAAGUAGAAGGCGUCUCAG [salish99_ex2_r4_609] (Eterna round: R97, puzzle: Exclusion 2)"
  apparent KD of MS2 coat protein / nM: 35.4
- biosequence: "UCACCGCAAGGAUAUACUUGCGGUGAUGUUCGAAAUCUUCUACUUGAGGAUCACCCAAGUAGAAGGUGCGGUGA [jl-ex2.4.66 ViennaUCT mod] (Eterna round: R97, puzzle: Exclusion 2)"
  apparent KD of MS2 coat protein / nM: 14.3
- biosequence: "AGGUCACAUGAGGAUCACCCAUGUCAGGAUAUCUACAUUGAAGCUUCGGCUUCAAUGUAGAGAAGGGACAAUUA [E1/6-B1] (Eterna round: R97, puzzle: Exclusion 1)"
  apparent KD of MS2 coat protein / nM: 341

----------
Tested on: K4 kissing-loop RNA reporter;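 also: bound reporter read as fluorescence of individual clusters on recovered sequencing chips by microscopy, with normalized cluster intensities fitted with a binding model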
protocol-details: apparent KD of K4 kissing-loop reporter; higher = weaker reporter binding
condition-parameters: Eterna round: R107; input ligand: none

- biosequence: "GUAGGAUGAGGAGGAGGAUGAAAUACUGAAGGAGCGCAGAGAAAUGCAGGUAGGUCGCGGUAAGGAAGUAUAGUGAUGUUAUAUA [#07 K4 Arginine A Same State]"
  target-system: "K4 kissing-loop RNA reporter"
  apparent KD of K4 kissing-loop reporter, nM: 664
- biosequence: "UAUAUAGUGACGGCCGCCACUAUUGUGAUGUUAUUGUUAGAGUGAUGUUUUGUUGUUUAAUUUUGUAGGACCGGGUUAUAUGUUA [xxzsmullin]"
  target-system: "K4 kissing-loop RNA reporter"
  apparent KD of K4 kissing-loop reporter, nM: 568
- biosequence: "UAAUAAAUUCCAGCGAUAUCGCUCUUCGAAGGAGCGGACGAAAGUCCAGGUAGGUCGCGGAGAGUGAUGUUCUUUGCGGCGCUGG [whbob_Ex_Arginine_A_2t133]"
  target-system: "K4 kissing-loop RNA reporter"
  apparent KD of K4 kissing-loop reporter, nM: 356
- biosequence: "GUAUCGCUAGGAGGAUAUUCCAUUUUACAUAGAAAUGGCUAUGCGAAGUGAUGUUUCGAUUUACGGGAAGAAGGCCUAGUGAUAC [FMN B 22]"
  target-system: "K4 kissing-loop RNA reporter"
  apparent KD of K4 kissing-loop reporter, nM: 148
- biosequence: "UCGGCGGAGUGAUGUUCCUAUGUCCAAGAUACCAGUCUAUGAACGGACCCUUGGCAGCUUCCAUUAGGUUACUAUUUAGACUCAU [theeternabot_exclusion_KL_Theo_A_10]"
  target-system: "K4 kissing-loop RNA reporter"
  apparent KD of K4 kissing-loop reporter, nM: 215
- biosequence: "GGAUGCAUUUUGGAUACCAGUCUAGUGAUGUUAGACUGAUAAUAACGGGCAGCGUUGGCAGACCCUUGGCAGCCAAAAUACUUAA [theeternabot_exclusion_KL_Theo_B_33]"
  target-system: "K4 kissing-loop RNA reporter"
  apparent KD of K4 kissing-loop reporter, nM: 54.8

----------
Test system: MS2 coat protein
protocol-details: apparent KD of MS2 coat protein; designed switch direction (-1 OFF switch, 1 ON switch): 1; higher = weaker reporter binding
condition-parameters: input ligand: none

- biosequence: "GCUCGACGUGUUGUCUACAUGAGGAUCACCCAUGUAGGUGCGGAGGAUAUCUACGUGUUUUAUGUAGAGAAGGUCGUGUCGAGC [SameState NG3 #88] (Eterna round: R96, puzzle: Same State NG 3)"
  apparent KD of MS2 coat protein: "17.2 nM"
- biosequence: "GGAAAGAGGUUAGGAUAUGCAUGGCUGGGACAUGAGGAUCACCCAUGUAAUAGAAGAAAUCUACAGUAGAAGGGACAAGGAAGG [AK SSNG2-V2-8] (Eterna round: R96, puzzle: Same State NG 2)"
  apparent KD of MS2 coat protein: "224 nM"
- biosequence: "AUUGCUUUCGCAGGAUAUGAUGCGAAAAUUGCGUCAGAAGGGUGGAGUAUCUCAUUGCAAGAGGACAUGAGGAUCACCCAUGUC [SameState NG1 #87] (Eterna round: R96, puzzle: Same State NG 1)"
  apparent KD of MS2 coat protein: "216 nM"
